Study system: Human SGLT2 (hSGLT2) (Homo sapiens, UniProt P31639)
Sequence (P31639 1-672): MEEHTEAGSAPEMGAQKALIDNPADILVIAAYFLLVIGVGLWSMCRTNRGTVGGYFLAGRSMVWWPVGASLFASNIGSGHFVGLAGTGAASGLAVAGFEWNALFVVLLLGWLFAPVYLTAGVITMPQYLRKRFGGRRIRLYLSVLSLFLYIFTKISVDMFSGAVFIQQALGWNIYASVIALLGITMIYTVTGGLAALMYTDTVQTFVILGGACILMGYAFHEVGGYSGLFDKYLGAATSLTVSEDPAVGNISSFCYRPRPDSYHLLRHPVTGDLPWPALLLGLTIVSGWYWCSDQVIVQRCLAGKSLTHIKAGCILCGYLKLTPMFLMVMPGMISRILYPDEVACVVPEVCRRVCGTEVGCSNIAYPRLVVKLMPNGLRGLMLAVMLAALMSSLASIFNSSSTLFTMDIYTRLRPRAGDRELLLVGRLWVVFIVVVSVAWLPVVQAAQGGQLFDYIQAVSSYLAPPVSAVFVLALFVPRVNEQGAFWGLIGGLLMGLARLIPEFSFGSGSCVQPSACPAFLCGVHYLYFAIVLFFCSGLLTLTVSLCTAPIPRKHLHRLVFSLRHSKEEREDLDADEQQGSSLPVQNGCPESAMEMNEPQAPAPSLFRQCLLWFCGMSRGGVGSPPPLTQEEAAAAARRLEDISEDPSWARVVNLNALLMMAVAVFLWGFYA
Method notes: Sodium-dependent glucose transport (14C-AMG uptake) assay in CHO cells stably expressing hSGLT2
Test parameters: CHO cells expressing hSGLT2, 14C-AMG uptake, 37° C. for 2 h; single determinations; read-out: hSGLT2 Inhibitory Activity IC50
Classify: met when IC50 is strictly less than 20 nM; not met when IC50 is not.

Please review the following examples before continuing.
Cc1ccc([C@@H]2O[C@H](CO)[C@@H](O)[C@H](O)[C@H]2O)cc1Cc1ncc(Cc2ccccc2)s1 [Example 39]; not met
CCOc1cc(Cl)c(Cc2ncc(-c3ccco3)s2)cc1[C@@H]1O[C@H](CO)[C@@H](O)[C@H](O)[C@H]1O [Example 77]; met
OC[C@H]1O[C@@H](c2ccc(Cl)c(Cc3cnc(-c4ccc(Cl)s4)s3)c2)[C@H](O)[C@@H](O)[C@@H]1O [Example 189]; met

# TODO verify IC50 < 20 nM strictly for this compound: OC[C@H]1O[C@@H](c2cc(Cc3ncc(-c4ccco4)s3)c(Cl)cc2F)[C@H](O)[C@@H](O)[C@@H]1O [Example 53]
met

###

Overview of recorded pIC50 for various compounds
Study system: UniProtKB P31639
Sequence (P31639 1-672): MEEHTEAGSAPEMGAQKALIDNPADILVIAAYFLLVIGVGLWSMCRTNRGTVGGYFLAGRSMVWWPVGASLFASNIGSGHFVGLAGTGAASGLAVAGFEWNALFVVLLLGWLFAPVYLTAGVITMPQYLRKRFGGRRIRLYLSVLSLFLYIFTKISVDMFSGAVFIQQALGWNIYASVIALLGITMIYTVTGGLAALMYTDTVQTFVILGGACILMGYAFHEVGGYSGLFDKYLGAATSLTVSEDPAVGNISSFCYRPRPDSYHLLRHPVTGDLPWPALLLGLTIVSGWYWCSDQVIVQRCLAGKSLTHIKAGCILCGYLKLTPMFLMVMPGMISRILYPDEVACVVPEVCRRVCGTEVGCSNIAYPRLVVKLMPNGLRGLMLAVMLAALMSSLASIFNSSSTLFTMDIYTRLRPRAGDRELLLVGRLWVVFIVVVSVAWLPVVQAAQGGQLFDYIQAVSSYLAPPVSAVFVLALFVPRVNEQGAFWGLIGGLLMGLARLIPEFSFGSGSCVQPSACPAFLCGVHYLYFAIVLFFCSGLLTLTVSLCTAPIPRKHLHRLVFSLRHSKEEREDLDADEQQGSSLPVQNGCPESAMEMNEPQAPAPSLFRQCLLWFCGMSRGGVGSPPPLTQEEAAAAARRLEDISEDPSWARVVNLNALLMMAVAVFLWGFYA
Method notes: Sodium-dependent glucose transport (14C-AMG uptake) assay in CHO cells stably expressing hSGLT2
Test parameters: CHO cells expressing hSGLT2, 14C-AMG uptake, 37° C. for 2 h; single determinations; read-out: hSGLT2 Inhibitory Activity IC50
Here pIC50 is given on a logarithmic scale as minus log10 of the concentration in mol/L.

The following compounds have reported results that may help.
COCCOc1cc(Cl)c(Cc2ncc(-c3ccco3)s2)cc1[C@@H]1O[C@H](CO)[C@@H](O)[C@H](O)[C@H]1O; 8.26
CC(C)c1cnc(Cc2cc([C@@H]3O[C@H](CO)[C@@H](O)[C@H](O)[C@H]3O)ccc2Cl)s1; 7.29
CCCCOC(=O)OC[C@H]1O[C@@H](c2ccc(Cl)c(Cc3ncc(-c4ccco4)s3)c2)[C@H](O)[C@@H](O)[C@@H]1O; 8.29

Please list pIC50 recorded for the compound OC[C@H]1O[C@@H](c2ccc(C(F)(F)F)c(Cc3ncc(-c4ccco4)s3)c2)[C@H](O)[C@@H](O)[C@@H]1O
8.01

Please list pIC50 recorded for the compound OC[C@H]1O[C@@H](c2cc(Cc3ncc(-c4ccsc4)s3)c(Cl)cc2Cl)[C@H](O)[C@@H](O)[C@@H]1O
8.64

Please list pIC50 recorded for the compound CCOc1cc(Cl)c(Cc2ncc(-c3ccccc3)s2)cc1[C@@H]1O[C@H](CO)[C@@H](O)[C@H](O)[C@H]1O
8.54

Please list pIC50 recorded for the compound CCOc1cnc(Cc2cc([C@@H]3O[C@H](CO)[C@@H](O)[C@H](O)[C@H]3O)c3ccccc3c2OC)s1
7.29
